Some compounds, each annotated with its measured pKi.
test.target: Carbonic anhydrase 1 (Homo sapiens)
Sequence (P00915 whole entry): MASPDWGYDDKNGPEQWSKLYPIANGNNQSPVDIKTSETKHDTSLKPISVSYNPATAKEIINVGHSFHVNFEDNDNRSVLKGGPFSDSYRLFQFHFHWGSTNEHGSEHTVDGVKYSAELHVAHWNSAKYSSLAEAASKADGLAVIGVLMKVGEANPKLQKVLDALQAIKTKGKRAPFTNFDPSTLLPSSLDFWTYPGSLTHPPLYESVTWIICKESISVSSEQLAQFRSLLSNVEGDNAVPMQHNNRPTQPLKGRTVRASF
method.description: Inhibition of human recombinant carbonic anhydrase 1 by stopped flow CO2 hydration method
pKi: −log10 of the molar value.

smiles.code	quantity.kind	result
CC1=CC(=O)N(CC(=O)c2cccc([N+](=O)[O-])c2)S(=O)(=O)O1	pKi	5.89
CC1=CC(OCC#N)=NS(=O)(=O)O1	pKi	5.54
CC1=CC(=O)N(Cc2ccccc2F)S(=O)(=O)O1	pKi	< 4.70
CC1=CC(OCc2ccccc2[N+](=O)[O-])=NS(=O)(=O)O1	pKi	< 4.70
C=CCN1C(=O)C=C(C)OS1(=O)=O	pKi	< 4.70

Value of measured pKi for the entry `CC1=CC(OCc2ccccc2Br)=NS(=O)(=O)O1` : < 4.70

The compound listed as `CC1=CC(=O)N(Cc2ccccc2[N+](=O)[O-])S(=O)(=O)O1` has a reported pKi of < 4.70

Reported pKi of `CC(=O)COC1=NS(=O)(=O)OC(C)=C1` : 5.60

Memo: `CC1=CC(=O)N(Cc2cccc(F)c2)S(=O)(=O)O1` , reported pKi: < 4.70

Lab note: measured pKi of `CCOC(=O)CN1C(=O)C=C(C)OS1(=O)=O` was < 4.70

Record `C=CCOC1=NS(=O)(=O)OC(C)=C1` . Reported pKi: < 4.70

compound `CC1=CC(=O)N(Cc2cccc([N+](=O)[O-])c2)S(=O)(=O)O1` , pKi observed: < 4.70

###

test.target: Carbonic anhydrase 12 (Homo sapiens)
Sequence (O43570 whole entry): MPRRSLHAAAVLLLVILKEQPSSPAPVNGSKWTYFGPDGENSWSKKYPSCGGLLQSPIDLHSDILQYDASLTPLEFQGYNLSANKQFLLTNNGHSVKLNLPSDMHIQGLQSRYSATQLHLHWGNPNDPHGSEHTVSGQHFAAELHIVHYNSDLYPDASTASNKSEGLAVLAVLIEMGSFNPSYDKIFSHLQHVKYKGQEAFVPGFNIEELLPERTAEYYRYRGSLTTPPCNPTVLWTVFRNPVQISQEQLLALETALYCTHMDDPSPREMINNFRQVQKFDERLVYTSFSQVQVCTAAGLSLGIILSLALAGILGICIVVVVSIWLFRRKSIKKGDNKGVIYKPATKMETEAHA
method.description: Inhibition of human recombinant carbonic anhydrase 12 by stopped flow CO2 hydration method
quantity.kind: pKi
# log scale: pKi equals minus log10 of the concentration in mol/L

Lab note: `C=CCN1C(=O)C=C(C)OS1(=O)=O` gave pKi of 6.99

###

Entries and their measured Ki follow.
test.target: Carbonic anhydrase 9 (Homo sapiens)
method.description: Inhibition of human recombinant carbonic anhydrase 9 by stopped flow CO2 hydration method
Respond with the bare value in nM.

smiles.code	test.target	readout.units	Ki
CC1=CC(OCc2ccccc2Br)=NS(=O)(=O)O1	Carbonic anhydrase 9 (Homo sapiens)	nM	249
CC1=CC(OCC#N)=NS(=O)(=O)O1	Carbonic anhydrase 9 (Homo sapiens)	nM	47
CCOC(=O)COC1=NS(=O)(=O)OC(C)=C1	Carbonic anhydrase 9 (Homo sapiens)	nM	43
CC1=CC(=O)N(Cc2ccc(C#N)cc2)S(=O)(=O)O1	Carbonic anhydrase 9 (Homo sapiens)	nM	309
CC1=CC(=O)N(Cc2ccccc2[N+](=O)[O-])S(=O)(=O)O1	Carbonic anhydrase 9 (Homo sapiens)	nM	41

Reported Ki of `CC1=CC(=O)N(Cc2cccc([N+](=O)[O-])c2)S(=O)(=O)O1` : 267

###

test.target: Carbonic anhydrase 9 (Homo sapiens, UniProt Q16790)
method.description: Inhibition of human recombinant carbonic anhydrase 9 by stopped flow CO2 hydration method
Readings of Ki for the listed compounds
Give a bare numeral; the unit nM is implied.

smiles.code	test.target	quantitative.readout
CCOC(=O)CN1C(=O)C=C(C)OS1(=O)=O	Carbonic anhydrase 9 (Homo sapiens, UniProt Q16790)	47
C=CCOC1=NS(=O)(=O)OC(C)=C1	Carbonic anhydrase 9 (Homo sapiens, UniProt Q16790)	199
CC1=CC(=O)N(CC(=O)c2cccc([N+](=O)[O-])c2)S(=O)(=O)O1	Carbonic anhydrase 9 (Homo sapiens, UniProt Q16790)	16.8
CC1=CC(=O)N(CC(=O)c2ccccc2)S(=O)(=O)O1	Carbonic anhydrase 9 (Homo sapiens, UniProt Q16790)	5.7
CC1=CC(OCC(=O)c2ccccc2)=NS(=O)(=O)O1	Carbonic anhydrase 9 (Homo sapiens, UniProt Q16790)	15.3

The reported Carbonic anhydrase 9 (Homo sapiens, UniProt Q16790) Ki of `CC1=CC(=O)N(Cc2cccc(Br)c2)S(=O)(=O)O1` is 284

Let me check: `CC1=CC(=O)N(Cc2ccccc2F)S(=O)(=O)O1` , system Carbonic anhydrase 9 (Homo sapiens, UniProt Q16790), measured Ki is 285

Observed Ki on Carbonic anhydrase 9 (Homo sapiens, UniProt Q16790), entry `CC1=CC(OCc2ccccc2[N+](=O)[O-])=NS(=O)(=O)O1` , equals 41

# `C=CCN1C(=O)C=C(C)OS1(=O)=O` with Carbonic anhydrase 9 (Homo sapiens, UniProt Q16790): Ki is 114

Observed Ki on Carbonic anhydrase 9 (Homo sapiens, UniProt Q16790), entry `CC1=CC(=O)N(Cc2cccc(F)c2)S(=O)(=O)O1` , equals 275
